Readings of EC50 for the listed molecules
Molecular target: Bile acid receptor (Homo sapiens, UniProt Q96RI1)
Sequence (Q96RI1 whole entry): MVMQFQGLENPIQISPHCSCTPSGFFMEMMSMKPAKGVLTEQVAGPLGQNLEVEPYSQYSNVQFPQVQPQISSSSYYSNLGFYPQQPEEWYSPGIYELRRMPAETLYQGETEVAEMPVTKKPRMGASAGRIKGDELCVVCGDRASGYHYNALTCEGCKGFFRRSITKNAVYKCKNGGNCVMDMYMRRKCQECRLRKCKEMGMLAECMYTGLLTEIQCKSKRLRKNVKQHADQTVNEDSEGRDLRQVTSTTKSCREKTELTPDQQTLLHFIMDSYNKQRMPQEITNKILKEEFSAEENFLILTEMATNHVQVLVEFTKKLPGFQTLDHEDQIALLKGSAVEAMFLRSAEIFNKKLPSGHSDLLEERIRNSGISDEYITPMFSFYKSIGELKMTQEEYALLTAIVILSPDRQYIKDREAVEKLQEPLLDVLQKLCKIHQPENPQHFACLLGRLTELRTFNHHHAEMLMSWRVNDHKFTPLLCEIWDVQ
Test: Agonist activity at GAL4-fused human FXR expressed in HEK293T cells assessed as activation of basal transcriptional activity after 20 hrs by dual-glo luciferase reporter gene assay
Write the value in µM as a bare number.

Inquiry: // lookup EC50 for "CCN(c1ccc(C(O)(C(F)(F)F)C(F)(F)F)cc1)S(=O)(=O)c1ccccc1"
Reply text: 9

Inquiry: Moving on to the next molecule: "O=S(=O)(c1ccc(F)cc1)N(CC(F)(F)F)c1ccc(C(O)(C(F)(F)F)C(F)(F)F)cc1"
Reply text: 1

Inquiry: Also "N#Cc1ccc(S(=O)(=O)N(CC(F)(F)F)c2ccc(C(O)(C(F)(F)F)C(F)(F)F)cc2)cc1" , if possible.
Reply text: 3

----------
Reported pEC50 values for a set of compounds
biological target: UniProt:Q13133
Sequence (Q13133 whole entry): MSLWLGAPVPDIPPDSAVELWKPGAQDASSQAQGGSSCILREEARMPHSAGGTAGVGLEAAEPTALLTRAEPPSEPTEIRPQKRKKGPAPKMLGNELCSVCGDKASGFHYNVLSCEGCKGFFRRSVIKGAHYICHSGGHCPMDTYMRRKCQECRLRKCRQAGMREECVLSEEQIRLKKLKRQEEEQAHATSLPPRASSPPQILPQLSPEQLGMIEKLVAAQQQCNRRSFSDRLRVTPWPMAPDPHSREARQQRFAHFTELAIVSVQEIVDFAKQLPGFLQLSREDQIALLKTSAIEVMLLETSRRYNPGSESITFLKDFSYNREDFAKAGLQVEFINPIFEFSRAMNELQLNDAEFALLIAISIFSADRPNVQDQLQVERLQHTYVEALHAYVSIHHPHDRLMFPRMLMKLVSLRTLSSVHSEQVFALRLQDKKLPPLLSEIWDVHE
Remember the convention: pEC50 equals -log10 of concentration in molar.

Inquiry: Any idea what pEC50 was measured for "CCN(c1ccc(C(O)(C(F)(F)F)C(F)(F)F)cc1)S(=O)(=O)c1ccccc1" ?
Reply text: 5.52

Inquiry: Can you check "O=S(=O)(c1ccc(F)cc1)N(CC(F)(F)F)c1ccc(C(O)(C(F)(F)F)C(F)(F)F)cc1" next?
Reply text: 6.14

----------
Quick note: these are IC50 numbers for system: UniProt:P51449
The figure you give is taken to be in nM; do not add the unit.

Examples with their reported IC50 follow.
smiles string | target system | experimental result
CC(=O)Nc1nc(C)c(S(=O)(=O)Nc2ccc(C(O)(C(F)(F)F)C(F)(F)F)cc2)s1 | UniProt:P51449 | 2000
COC(c1ccc(N(CC(F)(F)F)S(=O)(=O)c2ccccc2)cc1)(C(F)(F)F)C(F)(F)F | UniProt:P51449 | 900
O=S(=O)(c1ccccc1)N(Cc1ccccc1)c1ccc(C(O)(C(F)(F)F)C(F)(F)F)cc1 | UniProt:P51449 | 467

Now, please, on to the next molecule.
Inquiry: Which measured IC50 value corresponds to "N#Cc1ccc(S(=O)(=O)N(CC(F)(F)F)c2ccc(C(O)(C(F)(F)F)C(F)(F)F)cc2)cc1" ?
Reply text: 50

----------
Overview of reported pEC50 across a group of molecules:
Target protein (sequence): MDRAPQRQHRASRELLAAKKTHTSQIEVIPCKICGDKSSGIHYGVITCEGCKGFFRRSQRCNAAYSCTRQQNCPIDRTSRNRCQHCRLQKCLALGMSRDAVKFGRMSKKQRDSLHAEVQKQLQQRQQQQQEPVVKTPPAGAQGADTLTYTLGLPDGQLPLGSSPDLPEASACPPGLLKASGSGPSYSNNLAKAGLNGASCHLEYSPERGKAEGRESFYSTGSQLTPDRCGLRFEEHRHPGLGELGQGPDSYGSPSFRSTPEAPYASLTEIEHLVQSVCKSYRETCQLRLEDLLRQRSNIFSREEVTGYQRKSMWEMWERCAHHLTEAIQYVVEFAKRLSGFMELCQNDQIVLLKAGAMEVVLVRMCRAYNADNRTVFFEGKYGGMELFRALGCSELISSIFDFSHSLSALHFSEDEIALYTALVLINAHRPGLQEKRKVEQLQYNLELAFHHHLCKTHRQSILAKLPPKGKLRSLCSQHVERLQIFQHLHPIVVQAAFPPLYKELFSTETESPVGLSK
pEC50: −log10 of the molar value.

// worked examples, pEC50 included
smiles string | experimental result
COC(c1ccc(N(CC(F)(F)F)S(=O)(=O)c2ccccc2)cc1)(C(F)(F)F)C(F)(F)F | 5.05
O=S(=O)(Cc1ccccc1)N(CC(F)(F)F)c1ccc(C(O)(C(F)(F)F)C(F)(F)F)cc1 | < 5.70
O=S(=O)(c1ccccc1)N(CC(F)(F)F)c1ccc(CO)cc1 | < 5.00
NS(=O)(=O)c1ccc(N(CC(F)(F)F)S(=O)(=O)c2ccccc2)cc1 | < 5.00

Would you kindly look at the next entry?
Inquiry: # pEC50 lookup, item "O=C(O)c1ccc(N(CC(F)(F)F)S(=O)(=O)c2ccccc2)cc1"
Reply text: < 5.00

----------
The listing below reports IC50 for molecules tested on Nuclear receptor ROR-gamma (Homo sapiens).
Give a bare numeral; the unit nM is implied.

Below: 5 molecules and their reported IC50.
smiles string | measure | unit text | experimental result
O=S(=O)(c1ccccc1)N(CCC(F)(F)F)c1ccc(C(O)(C(F)(F)F)C(F)(F)F)cc1 | IC50 | nM | 519
O=S(=O)(c1ccccc1)N1CCc2cc(C(O)(C(F)(F)F)C(F)(F)F)ccc21 | IC50 | nM | 883
O=S(=O)(c1ccc(F)cc1)N(CC(F)(F)F)c1ccc(C(O)(C(F)(F)F)C(F)(F)F)cc1 | IC50 | nM | 34
CCN(c1ccc(C(O)(C(F)(F)F)C(F)(F)F)cc1)S(=O)(=O)c1ccccc1 | IC50 | nM | 245
O=S(=O)(c1ccccc1)N(CCO)c1ccc(C(O)(C(F)(F)F)C(F)(F)F)cc1 | IC50 | nM | 4000

Inquiry: Quick check: IC50 of "Cc1ccc(S(=O)(=O)N(CC(F)(F)F)c2ccc(C(O)(C(F)(F)F)C(F)(F)F)cc2)cc1" ?
Reply text: 51

Inquiry: And "O=C(c1ccccc1)N(CC(F)(F)F)c1ccc(C(O)(C(F)(F)F)C(F)(F)F)cc1" ?
Reply text: 2000

----------
biological target: Nuclear receptor ROR-gamma (Homo sapiens)
Below is a list of entries, each paired with its recorded EC50 value.
Unit µM implied. Number only.

smiles string | EC50 [µM]
N#Cc1cccc(S(=O)(=O)N(CC(F)(F)F)c2ccc(C(O)(C(F)(F)F)C(F)(F)F)cc2)c1 | 0.1
O=S(=O)(c1ccccc1)N1CCc2cc(C(O)(C(F)(F)F)C(F)(F)F)ccc21 | 5
CCN(c1ccc(C(O)(C(F)(F)F)C(F)(F)F)cc1)S(=O)(=O)c1ccccc1 | 0.19
O=C(c1ccccc1)N(CC(F)(F)F)c1ccc(C(O)(C(F)(F)F)C(F)(F)F)cc1 | 4
CC(=O)Nc1nc(C)c(S(=O)(=O)Nc2ccc(C(O)(C(F)(F)F)C(F)(F)F)cc2)s1 | 0.911

Inquiry: Fill blank: measured EC50 of the molecule "N#Cc1ccc(S(=O)(=O)N(CC(F)(F)F)c2ccc(C(O)(C(F)(F)F)C(F)(F)F)cc2)cc1" is ____.
Reply text: 0.061

----------
Observed EC50, system Nuclear receptor ROR-gamma (Homo sapiens, UniProt P51449).

Examples with answers:
smiles string | experimental result
NC(=O)c1ccc(N(CC(F)(F)F)S(=O)(=O)c2ccccc2)cc1 | > 10 µM
O=C(Nc1ccc(C(O)(C(F)(F)F)C(F)(F)F)cc1)c1ccc(C(F)(F)F)cc1 | > 10 µM

Proceed to the following item.
Inquiry: Query the reported EC50 for Nuclear receptor ROR-gamma (Homo sapiens, UniProt P51449); item: "O=C(O)CCN(c1ccc(C(O)(C(F)(F)F)C(F)(F)F)cc1)S(=O)(=O)c1ccccc1"
Reply text: > 10 µM

Every entry's value here was drawn from ChEMBL document CHEMBL3091433.
